This collection of values is drawn from patent US20240325555A1.

Target: cynomolgus LIV-1 (cynomolgus, UniProt A0A2K5WH46 30-741)
Sequence (A0A2K5WH46 entry or part of it): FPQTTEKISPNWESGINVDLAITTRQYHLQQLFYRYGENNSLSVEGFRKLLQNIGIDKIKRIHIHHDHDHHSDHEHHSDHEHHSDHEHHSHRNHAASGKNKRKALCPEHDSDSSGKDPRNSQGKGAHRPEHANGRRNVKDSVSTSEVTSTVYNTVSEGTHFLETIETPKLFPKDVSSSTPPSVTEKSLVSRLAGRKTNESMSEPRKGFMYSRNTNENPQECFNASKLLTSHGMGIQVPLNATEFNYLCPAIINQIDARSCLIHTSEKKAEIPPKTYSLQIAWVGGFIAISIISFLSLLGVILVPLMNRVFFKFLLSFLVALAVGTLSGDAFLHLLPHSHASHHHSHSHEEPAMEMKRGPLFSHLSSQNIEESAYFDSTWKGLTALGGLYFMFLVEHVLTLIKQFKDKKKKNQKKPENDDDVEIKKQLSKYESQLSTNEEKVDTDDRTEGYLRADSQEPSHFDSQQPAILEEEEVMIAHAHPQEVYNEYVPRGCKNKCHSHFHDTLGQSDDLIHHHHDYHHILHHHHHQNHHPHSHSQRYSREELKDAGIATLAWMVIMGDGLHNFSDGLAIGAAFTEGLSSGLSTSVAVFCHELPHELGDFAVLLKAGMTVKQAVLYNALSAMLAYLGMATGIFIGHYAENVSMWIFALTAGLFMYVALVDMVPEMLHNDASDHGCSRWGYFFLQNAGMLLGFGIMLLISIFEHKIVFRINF
Experiment: FACS, HEK293/Cyno_LIV-1 cells
# t = Top (MFI) below 7000 MFI (exclusive); f = Top (MFI) at/above 7000 MFI

39D10B2 (antibody, V domains shown, Tested as chimeric antibody) VH: QVQLKQSGPGLVQPSQSLSITCTVSGFSLTTYGVHWVRQSPGKGLEWLGVIWTGGTTDYNAAFISRLSISKDNSKSQVFFKMNSLQANDTAMYYCARGPSSYWGQGTLVTVSA VL: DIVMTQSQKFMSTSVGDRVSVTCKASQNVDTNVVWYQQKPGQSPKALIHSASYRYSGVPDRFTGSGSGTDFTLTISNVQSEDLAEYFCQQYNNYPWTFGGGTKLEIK
f
127A2B9 (antibody, V domains shown, Tested as chimeric antibody) VH: EVQLQESGPSLVKPSQTLSLTCSVTGDSITSGYWNWIRKLPGNKLEYMGYISYSGSTYYNPSLKSRISITRDTSKNQYYLQLNSVTTEDTATYYCARIYYDYDGYFDVWGAGTTVTVSS VL: DIVMTQAAPSVPVTPGESVSISCRSSKSLLHSNGNTFLYWFLQRPGQSPQLLIYRMSNLASGVPDRFSGSGSGTAFTLRISRVEAEDVGVYYCMQHLEYPYTFGGGTKLEIK
f
109C9D4 (antibody, V domains shown, Tested as chimeric antibody) VH: EVKLVESGGGLVQPGGSRKLSCAASGFTFSDYGMAWVRQAPGKGPEWVTFISNLAYSIYYADTVTGRFTISRENAKNTLYLEMSSLRSEDTAMYYCARVEENGNYFDYWGQGTTLTVSS VL: DIQMTQTTSSLSASLGDRVTIRCRASQDIGIYLHWYQQKPDGTVKLLIYYTSRLHSGVPSRFSGSRSGTDYSLTIGNLEQEDIATYFCLQGNTIPPTFGGGTKLEIK
t
59C12C8 (antibody, V domains shown, Tested as chimeric antibody) VH: EVQLQQSGAELVRSGASVKLSCTASDFNIEDYYIHWVKQRPEQGLEWIGWIDPENGDTEYAPKFQGKATMTADTSSNTAYLQLSSLTSEDTAVYYCPHGGGFRVFDYWGQGTTLTVSS VL: DVLMTQTPLSLPVSLGDQASISCRSSQRIVHSNGNTYLEWYLQKPGQSPKLLIYKVSNRFSGVPDRFSGSGSGTDFTLKISRVEAEDLGVYYCFQGSHVPWTFGGGTKLEIK
f
136F3D10C10 (antibody, V domains shown, Tested as chimeric antibody) VH: QVQLQQSGPELVKPGASVRIFCKASGYTFTSFHIHWVKQRPGQGLEWIGWIYPGNDNTDHNEKFKGKATLSADKSSSTVYMQLSSLTSEDSAVYFCGRSNYYGPLFAYWGQGTLVTVSA VL: DILMTQTPLSLPVSLGDQASISCRSSQNIVRSNGNTYLEWYLQKPGQSPKVLIYRVSNRFSGVPDRFSGSGSGTDFTLKISRVEAEDLGVYYCFQGSYVPYTFGGGTKLEIK
t
5D6B10 (antibody, V domains shown, Tested as chimeric antibody) VH: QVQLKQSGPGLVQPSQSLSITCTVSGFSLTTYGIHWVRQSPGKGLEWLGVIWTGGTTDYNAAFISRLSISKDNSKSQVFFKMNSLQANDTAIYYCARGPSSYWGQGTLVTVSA VL: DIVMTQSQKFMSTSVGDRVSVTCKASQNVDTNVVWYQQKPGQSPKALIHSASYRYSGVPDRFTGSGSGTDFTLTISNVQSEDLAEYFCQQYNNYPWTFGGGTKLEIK
f

Does the reported Top (MFI) of the following binder sit strictly below 7000 MFI? 290F10G10 (antibody, V domains shown, Tested as chimeric antibody) VH: IQLQQSGAELARPGASVKLSCKASGYTFTSYWIHWVKERPGQGLEWIGTIYPGDGDTRSTQKFKDKATVTAEKSSSTVYMQLSSLASEDSAVYYCTRSLIHDDYDKYYFDYWGQGTTLTVSS VL: DIQMTQSPSSLSASLGGKVTITCKARQDINKYIAWYQHKPGKGPRLLIHYTSILQPGIPSRFSGSGSGRDYSFSISNLEPEDIATYYCLQYDYFFTFGSGTKLEIK
t
